- Organism: Rattus norvegicus
- protocol_description: Open TG-GATES - Regimen: Daily Repeat
- Format: toxicity, organism-based, Sprague-Dawley
- Set-up: regimen Daily Repeat, gender Male, age 6 weeks
- settings: in vivo, po, 10 mg/kg, […], tissue Blood, route gavage, dose level Low, time 14 day
Measured Eos, listed per entry.
Give the value in % but do not write % after it.

# count of solved cases: 3
compound: CC(C)OC(=O)C(C)(C)Oc1ccc(C(=O)c2ccc(Cl)cc2)cc1 [FENOFIBRATE]
Eos / %: 1
//
compound: CC1=C(/C=C/C(C)=C/C=C/C(C)=C/CO)C(C)(C)CCC1
Eos / %: 0.8
//
compound: CN(C)CCCN1c2ccccc2CCc2ccccc21
Eos / %: 0.8

Moving on to another compound below.
Value of measured Eos for the entry `CN(C)CCN(Cc1cccs1)c1ccccn1` : 0.6

----------
- Organism: Rattus norvegicus
- protocol_description: Open TG-GATES - Regimen: Single
- Format: toxicity, organism-based, Sprague-Dawley
- Set-up: regimen Single, gender Male, age 6 weeks
- settings: in vivo, po, 100 mg/kg, 24 h, tissue Blood, route gavage, dose level High
Measured MCV, listed per entry.
The reply should consist of the numeric value with the unit placed after it.

molecule: CC1=C(/C=C/C(C)=C/C=C/C(C)=C/CO)C(C)(C)CCC1 [RETINOL]
MCV: 61.9 fL
--
molecule: CN(C)CCN(Cc1cccs1)c1ccccn1
MCV: 62.9 fL
--
molecule: CN(C)CCCN1c2ccccc2CCc2ccccc21 [IMIPRAMINE]
MCV: 65.1 fL

Moving on to another molecule below.
Value of measured MCV for the entry CN(C)CCCN1c2ccccc2CCc2ccc(Cl)cc21 [CLOMIPRAMINE] : 63.5 fL

----------
- Species on record: Rattus norvegicus
- protocol_description: Open TG-GATES - Regimen: Single
- Assay type: toxicity, organism-based, Sprague-Dawley
- Design: regimen Single, gender Male, age 6 weeks
- settings: in vivo, po, 30 mg/kg, 3 h, tissue Plasma, route gavage, dose level Middle
metric_name: BUN (mg/dL)
Give the value in mg/dL but do not write mg/dL after it.

# count of solved cases: 3
smiles_entry: CC1=C(/C=C/C(C)=C/C=C/C(C)=C/CO)C(C)(C)CCC1
measurement_unit: mg/dL
BUN: 13.4

smiles_entry: CN(C)CCCN1c2ccccc2CCc2ccc(Cl)cc21
measurement_unit: mg/dL
BUN: 9.8

smiles_entry: CN(C)CCN(Cc1cccs1)c1ccccn1
measurement_unit: mg/dL
BUN: 13

Value of measured BUN for the entry `CN(C)CCCN1c2ccccc2CCc2ccccc21` : 7.8

----------
- Organism: Rattus norvegicus
- protocol_description: Open TG-GATES - Regimen: Daily Repeat
- Type: toxicity, organism-based, Sprague-Dawley
- Design: regimen Daily Repeat, gender Male, age 6 weeks
- settings: in vivo, po, 10 mg/kg, […], tissue Plasma, route gavage, dose level Low, time 7 day
Measured AST, listed per entry.
Give the value in IU/L but do not write IU/L after it.

compound: CC(C)OC(=O)C(C)(C)Oc1ccc(C(=O)c2ccc(Cl)cc2)cc1 [FENOFIBRATE]
AST, IU/L: 72.8
//
compound: CC1=C(/C=C/C(C)=C/C=C/C(C)=C/CO)C(C)(C)CCC1
AST, IU/L: 68.2
//
compound: CN(C)CCN(Cc1cccs1)c1ccccn1
AST, IU/L: 66.6

Moving on to another compound below.
Value of measured AST for the entry `CN(C)CCCN1c2ccccc2CCc2ccccc21` : 63.8

Where do the numbers come from? From ChEMBL document CHEMBL3885861.
